Data provenance is patent US20230242544A1.

Reported GI50 by item:
Molecular target: Ba/F3_KRAS^G12D cells (Homo sapiens, UniProt P01116, G12D, cells depend on it)
Sequence (P01116 whole entry G12D): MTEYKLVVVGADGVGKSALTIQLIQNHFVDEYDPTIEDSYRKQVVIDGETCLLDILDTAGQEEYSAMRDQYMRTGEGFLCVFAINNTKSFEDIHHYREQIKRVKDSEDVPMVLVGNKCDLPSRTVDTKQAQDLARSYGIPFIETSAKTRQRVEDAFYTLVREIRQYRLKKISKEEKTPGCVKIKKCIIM
Assay: Ba/F3 KRAS G12D cell proliferation assay (CellTiter-Glo)
Type: cell-based
Settings: treated for 3 days, cell-titer Glo, cell growth inhibition, read-out: BaF3_KRAS^G12D IC50

CN1CCC[C@H]1COc1nc(N2CCNCC2)c2cc(Cl)c(-c3cc(O)cc4ccccc34)c(F)c2n1 ... 500 to 5000 nM
CN1CCC2CN(c3nc(N4CC5CCC(C4)N5)c4cc(Cl)c(-c5cc(O)cc6ccccc56)c(F)c4n3)CC2C1 (stereo not shown) ... 500 to 5000 nM

**Q:** I am curious: what GI50 value has been reported for `Cc1cccc2cccc(-c3c(C#N)cc4c(N5CC6CCC(C5)N6)nc(OC[C@@]56CCCN5C[C@H](F)C6)nc4c3F)c12` ?
**A:** 500 to 5000 nM

**Q:** Please report the recorded GI50 for Cc1cccc2cc(O)cc(-c3c(Cl)cc4c(N5CC6CCC(C5)N6)nc(OC[C@@]56CCCN5C[C@H](F)C6)nc4c3F)c12 [Compound 47] .
**A:** < 500 nM
